ASSAY SYSTEM: IL-17A/A (Homo sapiens)
Sequence (Q16552 24-155): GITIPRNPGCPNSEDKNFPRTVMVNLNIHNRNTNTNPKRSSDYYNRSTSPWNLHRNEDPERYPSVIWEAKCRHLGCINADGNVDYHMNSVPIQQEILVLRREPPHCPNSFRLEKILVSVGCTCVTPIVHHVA
METHOD DESCRIPTION: IL-17A/A HEK-Blue cell assay (SEAP reporter)
MEASUREMENT CONTEXT: HEK-Blue IL-17A reporter cells, IL17A/A 5 ng/mL, 20 hours, SEAP read at A630; read-out: HEK-Blue IL17AA (IC50 for IL-17A/A inhibition)
pIC50: −log10 of the molar value.
READOUT KIND: pIC50

In: Item under review: CC(C)n1nccc1C(=O)N[C@H](c1cn2nc(CC3C[C@@H](C(F)(F)F)CNC3=O)cnc2n1)C1CCC(F)(F)CC1 (some centres unmarked) [Compound 6] . Reported pIC50?
Out: > 7.00

In: So what's the measured pIC50 for this one? CCn1nccc1C(=O)N[C@H](c1cn2nc(CC3C[C@H](C(F)(F)F)CNC3=O)c(N(C)C)nc2n1)C1CCC(F)(F)CC1 (single isomer, unassigned) [Compound 51]
Out: 6.00 to 7.00

In: What value of pIC50 has been recorded for this entry: O=C(N[C@H](c1cn2nc(CC3C[C@@H](C(F)(F)F)CNC3=O)c(N3CCOCC3)nc2n1)C1CCC(F)(F)CC1)c1conc1C1CC1(F)F (single isomer, unassigned) [Compound 116]
Out: > 7.00

In: Consider the compound shown here: CCn1nccc1C(=O)N[C@H](c1cn2nc(C[C@H]3C[C@@H](C(F)(F)F)CNC3=O)c(C3CCC(F)(F)CC3)nc2n1)C1CCC(F)(F)CC1 [Compound 182] What is its recorded pIC50?
Out: > 7.00

In: Entry CCc1nonc1C(=O)N[C@H](c1cn2nc(C[C@H]3C[C@@H](C(F)(F)F)CNC3=O)c(C3CCOCC3)nc2n1)C1CCC(F)(F)CC1 [Compound 149] : reported pIC50 = ?
Out: > 7.00

In: Value lookup for pIC50; key = CC(C)n1nccc1C(=O)N[C@H](c1cn2nc(C[C@H]3C[C@@H](C(F)(F)F)CNC3=O)c(C3CCOC3)nc2n1)C1CCC(F)(F)CC1 (single isomer, unassigned) [Compound 132]
Out: > 7.00

In: Requested read-out: pIC50. Entry: O=C(N[C@H](c1cn2nc(C[C@H]3C[C@@H](C(F)(F)F)CNC3=O)c(C3CCOCC3)nc2n1)C1CCC(F)(F)CC1)c1nonc1CN1CC(F)C1 [Compound 373]
Out: > 7.00

In: Give its pIC50 value. Item: CCc1nocc1C(=O)N[C@H](c1cn2nc(C[C@H]3C[C@@H](C(F)(F)F)CNC3=O)c(C3CCOCC3)nc2n1)C1CCC(F)(F)CC1 [Compound 146]
Out: > 7.00

In: Query (compound): CCn1nccc1C(=O)N[C@H](c1cn2nc(C[C@H]3C[C@@H](C(F)(F)F)NC3=O)c(C3CCOCC3)nc2n1)C1CCC(F)(F)CC1 [Compound 151] ; field requested: pIC50
Out: > 7.00

In: Report pIC50 for CC(C)n1nccc1C(=O)N[C@H](c1cn2nc(C[C@@H]3C[C@@H](C(F)(F)F)CNC3=O)cnc2n1)C1CCC(F)(F)CC1 [Compound 202] please.
Out: 6.00 to 7.00

In: Consider the compound shown here: CCn1nccc1C(=O)N[C@H](c1cn2nc(C[C@H]3C[C@@H](C(F)(F)F)CNC3=O)cnc2n1)[C@@H]1CCCC(F)(F)C1 (single isomer, unassigned) [Compound 31] What is its recorded pIC50?
Out: 6.00 to 7.00
